Value source: ChEMBL document CHEMBL4813914

method: Inhibition of Salmonella typhimurium LsrK expressed in Escherichia coli MET1158 in presence of DPD by kinase-glo max luminescent assay
Parameters: species or system Salmonella enterica subsp. enterica serovar Typhimurium
pIC50: −log10 of the molar value.
pIC50 vs 4: at or above is true (1), below is false (0).

smiles-data | class-label
O=C(O)C(=O)N[C@H]1CCc2nc(NC(=O)c3cc(Br)c(Br)[nH]3)sc2C1 | false (0)
O=C(O)c1ccc(O)c2ncccc12 | false (0)
COc1ccc(Nc2cc(C(F)(F)F)ccc2Cl)c(C(=O)O)c1 | true (1)
O=C(O)CC(=O)Nc1ccc2nc(N(Cc3ccccc3)C(=O)c3cc(Br)c(Br)[nH]3)sc2c1 | true (1)
Cc1[nH]c(C(=O)N(Cc2ccccc2)c2nc3ccc(NC(=O)C(=O)O)cc3s2)c(Cl)c1Cl | true (1)
O=C(O)c1ccccc1Nc1ccc(Cl)cc1 | false (0)
